Ref: patent US10196403B2

Tested on: mice
Test: Neuropharmacological Assay (SmartCube)
Assay type: in vivo
Conditions: mice, i.p. 15 min before test, most efficacious dose(s) of 3 doses
measured.attribute: AX: anxiolytic (SmartCube probability)

structure.string	result
CCNC[C@@H]1OCCc2cccc(F)c21	++ (5%≤ ++ <25%)
CN(C)C[C@H]1OCCc2cccc(F)c21	++ (5%≤ ++ <25%)
CNC[C@H]1OCC(F)(F)c2ccccc21	++ (5%≤ ++ <25%)

###

Test system: mice
Assay: Neuropharmacological Assay (SmartCube)
Type: in vivo
Settings: mice, i.p. 15 min before test, most efficacious dose(s) of 3 doses
Text: Neuropharmacological Assay (SmartCube™) Neurosci. 2011 Sep. 9; 5:103 (doi: 10.3389/fnins.2011.00103) (“Roberds”). […] To facilitate testing of multiple compounds for behavioral effects relevant to psychiatric disease, PsychoGenics, Inc. (Tarrytown, N.Y., “PGI”) developed SmartCube™, an automated system in which behaviors of compound-treated mice are captured by digital video and analyzed with computer algorithms. […] where LOQ is the limit of quantification. […]
measured.attribute: CE: cognitive enhancer (SmartCube probability)

// below: answered molecules
molecule	result
CNC[C@H]1OCCc2ccc3c(c21)OC(F)(F)O3	+ (LOQ≤ + <5%)
CNC[C@H]1OCCc2cccc(F)c21	++ (5%≤ ++ <25%)
CNC[C@H]1OCCc2ccc3c(c21)OCO3	+ (LOQ≤ + <5%)
NC[C@H]1OCCc2c1ccc1c2OCO1	+ (LOQ≤ + <5%)
CNC[C@@H]1OC[C@H](O)c2ccc3c(c21)OCO3 (single isomer, unassigned)	+ (LOQ≤ + <5%)

Respectfully, I request CE: cognitive enhancer (SmartCube probability) for each entry included below.
1. NC[C@@H]1OCCc2cc(F)ccc21 [Example 34, (R)-(6-fluoroisochroman-1-yl)methanamine]
2. CNC[C@@H]1OCCc2c(F)cccc21
3. CC(N)C1OCCc2ccc3c(c21)OCO3 (stereo not drawn)
4. CNC[C@H]1OCCc2c(O)cc3c(c21)OCO3 (single isomer, unassigned)
5. CNC[C@@H]1OCC(C)(C)c2ccccc21
6. CNC[C@@H]1OCCc2cccc(C#N)c21

1. ++ (5%≤ ++ <25%)
2. ++ (5%≤ ++ <25%)
3. + (LOQ≤ + <5%)
4. ++ (5%≤ ++ <25%)
5. ++ (5%≤ ++ <25%)
6. ++ (5%≤ ++ <25%)
